The reader will find reported ΔTm values listed item by item below.
system: CT-DNA; experiment: DNA thermal denaturation, determination of ΔTm; format: binding; details: 20 uM compound, CT-DNA 15 ug/ml, PE buffer pH 7.6; Tm of CT-DNA alone 61° C.
// return numeric value only (unit: °C, not printed)

Reported ΔTm, compound COc1cccc2c1C(=O)c1c(O)c3c(c(O)c1C2=O)C[C@@](O)(C(=O)CO)C[C@@H]3O[C@H]1C[C@H](N)[C@H](O)[C@H](C)O1 [adriamycin, reference compound] : ____ 10.8

Try the compound CC[C@@]1(O)C(=O)OCc2c1cc1n(c2=O)Cc2cc3ccccc3nc2-1 [camptothecin, reference compound] −2.5

Try the compound COc1ccc2c3ccnc(C)c3n(Cc3ccccc3)c2c1 [Compound 6, 9-benzyl-7-methoxy-1-methyl-β-carboline] 10.3

Try the compound CCCCn1c2ccccc2c2cc(C(=O)O)ncc21 [Compound 36, 9-butyl-β-carboline-3-carboxylic acid] −1.5

====

tested on: HepG2; test: In vitro cytotoxicity, IC50 by MTT method, HepG2; format: cell-based, human; conditions: Homo sapiens; HepG2 cell strain; read-out: IC50 HepG2
metric name: pIC50
Reminder that pIC50 means the negative base-10 logarithm of the concentration expressed in mol/L.

compound	system under test	pIC50
Cn1c2ccccc2c2ccncc21	HepG2	4.00
COC(=O)c1cc2c3ccccc3n(Cc3ccccc3)c2cn1	HepG2	2.75
CCn1c2ccccc2c2cc(C(=O)O)ncc21	HepG2	3.74
CCCCn1c2ccccc2c2cc(C(=O)OC)ncc21	HepG2	3.34

Reported pIC50, compound CCCc1nc(C(=O)OCC)cc2c3ccccc3n(CC)c12 : ____ 3.96

Try the compound COC(=O)c1cc2c3ccccc3n(C)c2cn1 3.92

Try the compound CCCCOC(=O)c1cc2c3ccccc3n(C)c2cn1 [Compound 38, butyl 9-methyl-β-carboline-3-carboxylate] 2.79

Try the compound O=C(O)c1cc2c3ccccc3n(Cc3ccccc3)c2cn1 4.00

====

test system: Lewis lung cancer; conditions: Lewis lung cancer; Dosage 50 (mg/ml), ip × 10qd; first time
metric name: Body weight of the animals, end, First time (g)
// return numeric value only (unit: g, not printed)

Examples from the recorded data:
compound	val
O=C(O)c1cc2c(cn1)[nH]c1ccccc12	25.4
CCOC(=O)Nc1cc2c3ccccc3n(Cc3ccccc3)c2cn1	23.8
O=C(O)c1cc2c3ccccc3n(CCCc3ccccc3)c2cn1	25.3

// next entry
Reported Body weight of the animals, end, First time, compound CCOC(=O)c1cc2c([nH]c3ccccc32)c(C)n1 [Compound 11, ethyl 1-methyl-β-carboline-3-carboxylate] : ____ 23.0

====

system: S180 sarcoma; settings: S180 sarcoma; Dosage 50 (mg/ml), ip × 10qd; second time
metric name: Body weight of the animals, beginning, Second time (g)
// return numeric value only (unit: g, not printed)

molecule	val
O=C(O)c1cc2c(cn1)[nH]c1ccccc12 [Compound 17, β-carboline-3-carboxylic acid]	18.5
CCCCn1c2ccccc2c2cc(C(=O)O)ncc21 [Compound 36, 9-butyl-β-carboline-3-carboxylic acid]	18.3
OCc1cc2c3ccccc3n(Cc3ccccc3)c2cn1 [Compound 42, 9-benzyl-3-hydroxymethyl-β-carboline]	18.4

// next entry
Lab note: need Body weight of the animals, beginning, Second time for CCOC(=O)Nc1cc2c3ccccc3n(Cc3ccccc3)c2cn1 [Compound 55] on S180 sarcoma, anyone have it? 20.9

====

metric name: melting point

molecule	melting point
CCCCOC(=O)c1cc2c3ccccc3n(CC)c2cn1 [Compound 39, butyl 9-ethyl-β-carboline-3-carboxylate]	86 to 88 °C
OCc1cc2c(cn1)[nH]c1ccccc12 [Compound 24, 3-hydroxymethyl-β-carboline]	226 to 228 °C
CCCCn1c2ccccc2c2cc(C(=O)OC)ncc21	181 to 183 °C
CCn1c2ccccc2c2cc(C(=O)OC)nc(-c3ccccc3)c21	169 to 170 °C
CCCCOC(=O)c1cc2c3ccccc3n(C)c2cn1 [Compound 38, butyl 9-methyl-β-carboline-3-carboxylate]	235 to 238 °C

Reported melting point, molecule O=C(OCc1ccccc1)c1cc2c3ccccc3n(Cc3ccccc3)c2cn1 : ____ 169 to 170 °C

Try the molecule CCCc1nc(C(=O)OCC)cc2c3ccccc3n(Cc3ccccc3)c12 158 to 159 °C

Try the molecule Cc1nc(C(=O)O)cc2c3ccccc3n(C)c12 262 to 264 °C

====

system: Kunming mice; details: male mice, 240 mg/kg, single i.p.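 Note: acute toxicity in Kunming mice grouped by sex, one intraperitoneal dose at five graded levels in Tween-80 plus 0.5% CMC-Na, deaths monitored over two weeks.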
The reader will find reported Death rate values listed item by item below.
Respond numerically, and do not add a unit to the figure.

Examples from the recorded data:
compound	val
O=C(O)c1cc2c3ccccc3n(Cc3ccccc3)c2cn1	100
COC(=O)c1cc2c([nH]c3ccccc32)c(-c2ccc(O)cc2)n1	0
CCOC(=O)c1cc2c3ccccc3n(Cc3ccccc3)c2cn1 [Compound 33, ethyl 9-benzyl-β-carboline-3-carboxylate]	40

// next entry
Reported Death rate, compound CCOC(=O)Nc1cc2c3ccccc3n(Cc3ccccc3)c2cn1 : ____ 0

====

test system: BGC-823; test: In vitro cytotoxicity, IC50 by MTT method, BGC-823; format: cell-based; conditions: BGC823, MTT; read-out: IC50
metric name: IC50 (µM)
// return numeric value only (unit: µM, not printed)

molecule	system under test	metric name	val
NNC(=O)c1cc2c(cn1)[nH]c1ccccc12 [Compound 20, β-carboline-3-carbohydrazine]	BGC-823	IC50	740

Reported IC50, molecule COc1ccc2c3ccnc(C)c3n(Cc3c(F)c(F)c(F)c(F)c3F)c2c1 : ____ 20

====

tested on: S180 sarcoma; settings: S180 sarcoma; Dosage 100, ip × 10qd; second time
metric name: Weight of the tumor X ± SD, Second time (g)
// return numeric value only (unit: g, not printed)

Examples from the recorded data:
molecule	measure unit	Weight of the tumor X ± SD, Second time
OCc1cc2c3ccccc3n(Cc3ccccc3)c2cn1 [Compound 42, 9-benzyl-3-hydroxymethyl-β-carboline]	g	2.02
c1ccc(Cn2c3ccccc3c3ccncc32)cc1	g	1.79
CCOC(=O)c1cc2c3ccccc3n(Cc3ccccc3)c2cn1 [Compound 33, ethyl 9-benzyl-β-carboline-3-carboxylate]	g	1.62
O=C(O)c1cc2c3ccccc3n(CCCc3ccccc3)c2cn1	g	1.83
O=C(O)c1cc2c(cn1)[nH]c1ccccc12	g	1.81

Reported Weight of the tumor X ± SD, Second time, molecule CCOC(=O)Nc1cc2c3ccccc3n(Cc3ccccc3)c2cn1 : ____ 2.05

Try the molecule CCCCn1c2ccccc2c2cc(C(=O)O)ncc21 1.62

====

system: S180 sarcoma; conditions: S180 sarcoma; Dosage 50 (mg/ml), ip × 10qd; first time
The reader will find reported Body weight of the animals, end, First time values listed item by item below.
// return numeric value only (unit: g, not printed)

Examples from the recorded data:
molecule	system under test	val
O=C(O)c1cc2c3ccccc3n(CCCc3ccccc3)c2cn1	S180 sarcoma	24.8
CCOC(=O)c1cc2c(cn1)[nH]c1ccccc12 [Compound 10, ethyl β-carboline-3-carboxylate]	S180 sarcoma	26.4
CCOC(=O)c1cc2c3ccccc3n(Cc3ccccc3)c2cn1 [Compound 33, ethyl 9-benzyl-β-carboline-3-carboxylate]	S180 sarcoma	24.4

Reported Body weight of the animals, end, First time, molecule COC(=O)c1cc2c([nH]c3ccccc32)c(-c2ccccc2)n1 : ____ 26.7

Try the molecule CCOC(=O)c1cc2c3ccccc3n(CC)c2cn1 [Compound 31, ethyl 9-ethyl-β-carboline-3-carboxylate] 26.7

Try the molecule O=C(O)c1cc2c(cn1)[nH]c1ccccc12 24.7

Try the molecule c1ccc(Cn2c3ccccc3c3ccncc32)cc1 26.8

Try the molecule CCOC(=O)c1cc2c([nH]c3ccccc32)c(C)n1 [Compound 11, ethyl 1-methyl-β-carboline-3-carboxylate] 25.9

====

test system: S180 sarcoma; details: S180 sarcoma; Dosage 100 (mg/ml), ip × 10qd; first time
The reader will find reported Weight of the tumor X ± SD, First time values listed item by item below.
// return numeric value only (unit: g, not printed)

compound	Weight of the tumor X ± SD, First time / g
CCCCn1c2ccccc2c2cc(C(=O)O)ncc21	1.52
COC(=O)c1cc2c([nH]c3ccccc32)c(-c2ccc(OC)cc2)n1	1.69

Reported Weight of the tumor X ± SD, First time, compound CCOC(=O)c1cc2c(cn1)[nH]c1ccccc12 [Compound 10, ethyl β-carboline-3-carboxylate] : ____ 1.56

Try the compound COC(=O)c1cc2c([nH]c3ccccc32)c(-c2ccccc2)n1 1.78

Try the compound c1ccc(Cn2c3ccccc3c3ccncc32)cc1 1.79

Try the compound OCc1cc2c3ccccc3n(Cc3ccccc3)c2cn1 [Compound 42, 9-benzyl-3-hydroxymethyl-β-carboline] 1.92

====

system: Lewis lung cancer; settings: Lewis lung cancer; Dosage 100 (mg/ml), ip × 10qd; first time;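 note: mice implanted subcutaneously in the axilla with Lewis lung tumor cells, treated starting the following day, killed roughly three weeks after implantation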
metric name: Body weight of the animals, end, First time (g)
// return numeric value only (unit: g, not printed)

Examples from the recorded data:
compound	measure unit	val
O=C(O)c1cc2c3ccccc3n(CCCc3ccccc3)c2cn1 [Compound 48]	g	24.8
CCCCn1c2ccccc2c2cc(C(=O)O)ncc21 [Compound 36, 9-butyl-β-carboline-3-carboxylic acid]	g	25.2
O=C(O)c1cc2c(cn1)[nH]c1ccccc12 [Compound 17, β-carboline-3-carboxylic acid]	g	24.8
CCOC(=O)c1cc2c(cn1)[nH]c1ccccc12 [Compound 10, ethyl β-carboline-3-carboxylate]	g	23.6
CCOC(=O)c1cc2c3ccccc3n(Cc3ccccc3)c2cn1 [Compound 33, ethyl 9-benzyl-β-carboline-3-carboxylate]	g	24.7

Reported Body weight of the animals, end, First time, compound COC(=O)c1cc2c([nH]c3ccccc32)c(-c2ccc(OC)cc2)n1 [Compound 15] : ____ 24.0

Try the compound COC(=O)c1cc2c([nH]c3ccccc32)c(-c2ccccc2)n1 [Compound 14] 23.1
